The values you see were collected from patent US11718628B2.

# ASSAY_PROTOCOL: In vivo pharmacokinetic properties in mice (IV and PO)
# Design: species or system C57BL/6J mice
# MEASUREMENT_SETUP: mouse, in vivo, po, 10 mg/kg

{"columns": ["ENTRY_SMILES", "Oral Administration (PO) AUC0-last"],
 "data": [
  ["CC1(O)CCN(C(=O)c2ccc(-c3cncc(-c4ccnc(C(C)(C)C)c4)c3)c(Cl)c2)CC1", "1510 ng·h/mL"],
  ["CC(C)(C)c1cc(-c2cncc(-c3c(Cl)cc(C(=O)N4CCC(O)CC4)cc3Cl)c2)ccn1", "15000 ng·h/mL"],
  ["CC(C)OC(=O)Nc1ccc(-c2cncc(-c3ccnc(C(C)(C)C)c3)c2)c(Cl)c1", "1380 ng·h/mL"],
  ["CC(C)(C)c1cc(-c2cncc(-c3ccc(C(=O)N4CCC(O)CC4)cc3Cl)c2)ccn1", "5400 ng·h/mL"]
]}

###

# ASSAY_PROTOCOL: In vivo pharmacokinetic properties in mice (IV and PO)
# Set-up: species or system C57BL/6J mice
# MEASUREMENT_SETUP: C57BL/6J, mouse, in vivo

{"columns": ["COMPOUND", "UOM", "bioavailability"],
 "data": [
  ["O=C(c1ccc(-c2cncc(-c3ccnc4c3OCCO4)c2)c(Cl)c1)N1CCC(O)CC1 [Compound Z-806]", "%", 58]
]}

###

# ASSAY_PROTOCOL: In vivo pharmacokinetic properties in mice (IV and PO)
# Design: species or system C57BL/6J mice
# MEASUREMENT_SETUP: mouse, in vivo, iv, 2 mg/kg
ENDPOINT: Intravenous Delivery (IV) T1/2 (h)

{"columns": ["ENTRY_SMILES", "ENDPOINT", "UOM", "RESULT_VALUE"],
 "data": [
  ["CC1(O)CCN(C(=O)c2ccc(-c3cncc(-c4ccnc(C(C)(C)C)c4)c3)c(Cl)c2)CC1", "Intravenous Delivery (IV) T1/2", "h", 2.02],
  ["CC(C)OC(=O)Nc1ccc(-c2cncc(-c3ccnc(C(C)(C)C)c3)c2)c(Cl)c1", "Intravenous Delivery (IV) T1/2", "h", 5.31],
  ["CC(C)(C)c1cc(-c2cncc(-c3c(Cl)cc(C(=O)N4CCC(O)CC4)cc3Cl)c2)ccn1", "Intravenous Delivery (IV) T1/2", "h", 3.24],
  ["CC(C)(C)c1cc(-c2cncc(-c3ccc(C(=O)N4CCC(O)CC4)cc3Cl)c2)ccn1", "Intravenous Delivery (IV) T1/2", "h", 3.39]
]}

###

List of LogD values.
# ASSAY_PROTOCOL: Log D by octanol/aqueous buffer partitioning
# Assay type: physicochemical
# MEASUREMENT_SETUP: 1-octanol/aqueous buffer; pH 7.4, 1-octanol/buffer; read-out: LogD

{"columns": ["COMPOUND", "LogD"],
 "data": [
  ["CC(C)(C)c1cc(-c2cncc(-c3ccc(NS(C)(=O)=O)cc3Cl)c2)ccn1 [Compound Z-803]", 3.84],
  ["O=C(c1ccc(-c2cncc(-c3ccnc4c3OCCO4)c2)c(Cl)c1)N1CCC(O)CC1 [Compound Z-806]", 1.98],
  ["CC(C)(O)c1cc(-c2cncc(-c3ccc(C(=O)N4CCC(O)CC4)cc3Cl)c2)ccn1 [Compound Z-796]", 2.08]
]}

###

# ASSAY_PROTOCOL: In vivo pharmacokinetic properties in rats (IV and PO)
# Design: species or system male Sprague Dawley rats
# MEASUREMENT_SETUP: male, Sprague Dawley, rat, plasma, PO, 10 mg/kg, read-out: Oral Administration (PO) Tmax
# Method: The in vivo pharmacokinetic properties of compounds by both intravenous and oral administration were evaluated in male Sprague Dawley rats or C57BL/6J mice. Animals were housed in cages with clean bedding. Certified rodent diet was provided. Water was available ad libitum. Environmental controls for the animal room were set to maintain a temperature of 22° C. to 25° C., humidity of 40-70% RH, and a 12-hour light/12-hour dark cycle. […]

{"columns": ["ENTRY_SMILES", "Tmax / min"],
 "data": [
  ["CC(C)(O)c1cc(-c2cncc(-c3ccc(C(=O)N4CCC(O)CC4)cc3Cl)c2)ccn1", 40],
  ["CC(C)(C)c1cc(-c2cncc(-c3ccc(C(=O)N4CCC(O)CC4)cc3)c2F)ccn1", 30],
  ["CC(C)(C)c1cc(-c2cncc(-c3ccc(NS(C)(=O)=O)cc3Cl)c2)ccn1", 200],
  ["O=C(c1ccc(-c2cncc(-c3ccnc4c3OCCO4)c2)c(Cl)c1)N1CCC(O)CC1", 19.8]
]}

###

# ASSAY_PROTOCOL: In vivo pharmacokinetic properties in rats (IV and PO)
# Design: species or system male Sprague Dawley rats
# MEASUREMENT_SETUP: male, Sprague Dawley, rat, plasma, IV, 2 mg/kg, read-out: Intravenous Delivery (IV) Vd
# Procedure: The in vivo pharmacokinetic properties of compounds by both intravenous and oral administration were evaluated in male Sprague Dawley rats or C57BL/6J mice. Animals were housed in cages with clean bedding. Certified rodent diet was provided. Water was available ad libitum. Environmental controls for the animal room were set to maintain a temperature of 22° C. to 25° C., humidity of 40-70% RH, and a 12-hour light/12-hour dark cycle. […]

{"columns": ["ENTRY_SMILES", "UOM", "Vd"],
 "data": [
  ["CC(C)(C)c1cc(-c2cncc(-c3ccc(NS(C)(=O)=O)cc3Cl)c2)ccn1", "L/kg", 2.18],
  ["CC(C)(O)c1cc(-c2cncc(-c3ccc(C(=O)N4CCC(O)CC4)cc3Cl)c2)ccn1", "L/kg", 2.37],
  ["O=C(c1ccc(-c2cncc(-c3ccnc4c3OCCO4)c2)c(Cl)c1)N1CCC(O)CC1", "L/kg", 2.26],
  ["CC(C)(C)c1cc(-c2cncc(-c3ccc(C(=O)N4CCC(O)CC4)cc3)c2F)ccn1", "L/kg", 2.54]
]}

###

# ASSAY_PROTOCOL: Half-life in mouse liver microsomes
# Assay type: in vitro ADME
# MEASUREMENT_SETUP: mouse, liver microsomes, read-out: H: half-life of mouse liver microsomes
ENDPOINT: half-life at 1 µM (h)

{"columns": ["COMPOUND", "ENDPOINT", "RESULT_VALUE"],
 "data": [
  ["CC(C)(C)c1cc(-c2cncc(-c3ccc(C(=O)N4CCC(O)C(O)CC4)cc3Cl)c2)ccn1 (centres unmarked)", "half-life at 1 µM", 2],
  ["CC(C)(C)c1cc(-c2cccc(-c3ccc(C(=O)NS(=O)(=O)C4CC4)cc3Cl)c2)ccn1", "half-life at 1 µM", 1.11],
  ["CC(C)(C)c1cc(-c2cncc(-c3ccc(C(=O)N4CC5CCC(C4)C5O)cc3Cl)c2)ccn1 (centres unmarked)", "half-life at 1 µM", 0.355],
  ["CC1(c2cc(-c3cncc(-c4ccc(C(=O)N5CCC(O)CC5)cc4Cl)c3)ccn2)OCCO1", "half-life at 1 µM", 1.68],
  ["CC(C)(C)c1cc(-c2cncc(-c3ccc(C(=O)N4CC(CO)C4)cc3Cl)c2)ccn1", "half-life at 1 µM", 0.442]
]}

###

# ASSAY_PROTOCOL: Half-life in human liver microsomes
# Type: in vitro ADME
# MEASUREMENT_SETUP: human, liver microsomes, NADPH, 37° C., read-out: G: half-life human liver microsomes
// assign Satisfied if half-life at 1 µM falls strictly below 7 min, else Not satisfied (ties count as Not satisfied)

{"columns": ["COMPOUND", "GROUP_LABEL"],
 "data": [
  ["CC(C)(C)c1cc(-c2cncc(-c3cc(C(=O)N4CCC(O)CC4)ccc3Cl)c2)ccn1", "Satisfied"],
  ["O=C(c1ccc(-c2cncc(-c3ccnc(C4CC4)c3)c2)c(Cl)c1)N1CCC(F)CC1", "Not satisfied"],
  ["CS(=O)(=O)Nc1ccc(-c2cncc(-c3ccnc4c3OCCO4)c2)c(Cl)c1", "Not satisfied"],
  ["CN(C)c1cc(-c2ccnc(C(C)(C)C)c2)cc(-c2ccc(C(=O)N3CCC(O)CC3)cc2Cl)c1", "Not satisfied"],
  ["Cc1c(-c2ccnc(C(C)(C)C)c2)cncc1-c1ccc(C(=O)N2CCC(O)CC2)cc1Cl", "Satisfied"],
  ["CC(C)(C)c1cc(-c2cc(-c3ccc(C(=O)N4CCC(O)CC4)cc3Cl)cc3cnccc23)ccn1", "Not satisfied"],
  ["O=C(c1ccc(-c2cncc(-c3ccnc4c3CCC4)c2)c(Cl)c1)N1CCC(O)CC1", "Not satisfied"],
  ["O=C(c1ccc(-c2cncc(-c3ccnc(C4(O)CCC4)c3)c2)c(Cl)c1)N1CCC(O)CC1", "Not satisfied"],
  ["O=C(c1ccc(-c2cncc(-c3ccnc(C4CC4)c3)c2)c(Cl)c1)N1CCC(F)C(O)C1 (stereo not drawn)", "Not satisfied"],
  ["CC(C)(C)c1cc(-c2cncc(-c3ccc(NS(=O)(=O)CC(F)(F)F)cc3Cl)c2)ccn1", "Satisfied"],
  ["CC(C)(C)c1cc(-c2cccc(-c3ccc(NS(=O)(=O)C(F)(F)F)cc3Cl)c2F)ccn1", "Satisfied"],
  ["Cc1ncc(-c2ccc(C(=O)N3CCC(O)CC3)cc2Cl)cc1-c1ccnc(C(C)(C)C)c1", "Not satisfied"],
  ["CC(C)(C)c1cc(-c2cncc(-c3ccc(C(=O)N4CC(O)C4)cc3Cl)c2)ccn1", "Satisfied"],
  ["COc1ncc(-c2ccc(C(=O)N3CCC(O)CC3)cc2Cl)cc1-c1ccnc(C(C)(C)C)c1", "Not satisfied"],
  ["CC(C)(C)c1cc(-c2cc(-c3ccc(C(=O)N4CCC(O)CC4)cc3Cl)ncn2)ccn1 [drawing 376]", "Not satisfied"],
  ["O=C(Nc1ccc(-c2cncc(-c3ccnc4c3OCCO4)c2)c(Cl)c1)OC1CC1", "Not satisfied"],
  ["CC(C)(C)c1cc(-c2cncc(-c3ccc(C(=O)N4CCC[C@H]4C(C)(C)O)cc3Cl)c2)ccn1", "Not satisfied"],
  ["CC(C)(C)c1cc(-c2cncc(-c3ccc(C(=O)N4CC5CCC(C4)C5O)cc3Cl)c2)ccn1 (stereo not drawn)", "Not satisfied"]
]}
